Hello, the source for this data is the supplement of paper PMC6757056, in case you need it.

B1: library; a variant is named by its letters at N, in order (parent)
chain: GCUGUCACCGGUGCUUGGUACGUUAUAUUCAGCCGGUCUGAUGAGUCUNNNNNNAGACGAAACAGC

Variants of: B1
measurement_notes: normalized RNA/DNA level with ligand (relative to sTRSVctl = 100) (log10 (% of sTRSVctl)); HEK293T overexpressing SLC46A1; ligand concentration (+) RNA-Seq: 6 mM; higher = less ribozyme self-cleavage, higher mRNA level
measurement_parameters: with (6R,S)-folinic acid; ligand present: yes
Listing: normalized RNA/DNA level with ligand (log10) of selected variants
Just the number, please, no unit attached.

Worked examples, 2 variants total:
sequence_string	measurement
GCUGUCACCGGUGCUUGGUACGUUAUAUUCAGCCGGUCUGAUGAGUCUCUUCAGAGACGAAACAGC	2.1
GCUGUCACCGGUGCUUGGUACGUUAUAUUCAGCCGGUCUGAUGAGUCUCGGCCAAGACGAAACAGC	2.06

Now take the following variant into account.
Ask: Return reported normalized RNA/DNA level with ligand (log10); argument: GCUGUCACCGGUGCUUGGUACGUUAUAUUCAGCCGGUCUGAUGAGUCUUUCUGCAGACGAAACAGC
Reply: 2.04
